# Target Under Test: heteromeric hSK1:hIKCa channel (Homo sapiens, UniProt O15554+Q92952)
# Construct: expressed in transfected cells; host or cells: tsA201 cells
# Sequence (O15554 whole entry): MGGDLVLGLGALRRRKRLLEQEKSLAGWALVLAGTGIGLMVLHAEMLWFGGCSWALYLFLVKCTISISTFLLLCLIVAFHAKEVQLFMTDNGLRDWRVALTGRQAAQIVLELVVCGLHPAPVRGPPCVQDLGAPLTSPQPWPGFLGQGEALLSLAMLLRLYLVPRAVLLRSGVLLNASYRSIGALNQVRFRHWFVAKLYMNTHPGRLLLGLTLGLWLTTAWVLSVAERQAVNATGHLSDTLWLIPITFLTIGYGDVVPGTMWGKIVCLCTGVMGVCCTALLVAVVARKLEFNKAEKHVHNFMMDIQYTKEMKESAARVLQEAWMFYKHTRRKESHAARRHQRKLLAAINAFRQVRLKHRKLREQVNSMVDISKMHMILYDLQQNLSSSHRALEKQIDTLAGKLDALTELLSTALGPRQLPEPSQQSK
# Sequence (Q92952 other isoform, or with tags, fused parts or gaps): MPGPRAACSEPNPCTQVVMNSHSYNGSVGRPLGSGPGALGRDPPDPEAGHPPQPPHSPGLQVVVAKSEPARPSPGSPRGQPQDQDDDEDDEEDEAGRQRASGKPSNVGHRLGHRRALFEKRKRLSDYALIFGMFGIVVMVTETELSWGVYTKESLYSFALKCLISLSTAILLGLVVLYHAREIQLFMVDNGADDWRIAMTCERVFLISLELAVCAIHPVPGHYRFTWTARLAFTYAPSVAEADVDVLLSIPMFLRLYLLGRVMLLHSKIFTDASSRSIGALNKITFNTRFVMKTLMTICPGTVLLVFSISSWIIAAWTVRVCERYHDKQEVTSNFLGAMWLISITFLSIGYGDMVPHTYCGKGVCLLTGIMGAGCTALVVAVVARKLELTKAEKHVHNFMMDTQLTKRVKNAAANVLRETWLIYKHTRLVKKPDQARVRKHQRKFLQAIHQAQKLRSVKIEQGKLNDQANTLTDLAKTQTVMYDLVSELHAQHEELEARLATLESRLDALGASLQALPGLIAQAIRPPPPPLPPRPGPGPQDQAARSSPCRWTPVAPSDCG
# Experimental Protocol: Ca2+ activation of ramp currents, inside-out macropatches, heteromeric hSK1:hIKCa
# Type: cell-based
# Test Context: inside-out patches, tsA201 cells; read-out: EC50 for activation of heteromeric hSK1:hIKCa-mediated ramp currents
# Experimental: TsA201 cells were maintained in culture at 37°C and 5% CO2, being grown in culture flasks with Dulbecco's Modified Eagle Medium (DMEM) supplemented with foetal bovine serum (10%) and penicillin and streptomycin (1%). Cells were passaged at ~80% confluence. […] Sensitivity of expressed channels to Ca^2+ was assessed using inside‐out macropatches excised from eGFP‐positive cells, using electrodes of resistance 1–3 MΩ. […]
pEC50: −log10 of the molar value.

| Line Notation | pEC50 |
| --- | --- |
| [Ca+2] | 6.21 |
